Source of measurements: the supplement of paper PMC4862054

Assignment: determine reported EC50, CellTiter-Blue viability for the given molecules.
# System: MFM-223
# assay context: 72 h
One number for each entry, in nM.

See these solved cases before continuing.
INSERT INTO results (smiles_representation, observed_measurement) VALUES
  ('CS(=O)(=O)CCNCc1ccc(-c2ccc3ncnc(Nc4ccc(OCc5cccc(F)c5)c(Cl)c4)c3c2)o1', 9850),
  ('COc1cccc2c1C(=O)c1c(O)c3c(c(O)c1C2=O)C[C@@](O)(C(C)=O)C[C@@H]3O[C@H]1C[C@H](N)[C@H](O)[C@H](C)O1', 667),
  ('CC(C)C[C@H](NC(=O)[C@H](Cc1ccccc1)NC(=O)c1cnccn1)B(O)O', 6.67);

Below is a list of molecules. For each, state its recorded EC50, CellTiter-Blue viability.
1. COC1=CC(c2cc3ccccc3[nH]2)=N/C1=C\c1[nH]c(C)cc1C
2. C#Cc1cccc(Nc2ncnc3cc(OC)c(OCCCCCCC(=O)NO)cc23)c1

Output:
[1010, 145]

Input: I am curious: what EC50, CellTiter-Blue viability value has been reported for COc1c(C)cnc(Cn2cnc3c(Cl)nc(N)nc32)c1C ?
Output: 57.7

* * *

Assignment: determine reported drug sensitivity score for the given compounds.
# Tested on: MDA-MB-468
# test: drug sensitivity score (DSS), CellTiter-Glo (DSS (AUC-based score)); higher = stronger drug effect (viability inhibition or cytotoxicity); extreme values may be limits of the assay
# assay context: incubation time: 72 h
Give bare numbers.

See these solved cases before continuing.
INSERT INTO measurements (smiles_representation, observed_measurement) VALUES
  ('CC(C)C[C@H](NC(=O)[C@H](Cc1ccccc1)NC(=O)c1cnccn1)B(O)O', 30.9),
  ('CS(=O)(=O)OCCCCOS(C)(=O)=O', 0);

Below is a list of compounds. For each, state its recorded drug sensitivity score.
1. O=c1[nH]cc(F)c(=O)[nH]1
2. COc1ccc(C2=N[C@@H](c3ccc(Cl)cc3)[C@@H](c3ccc(Cl)cc3)N2C(=O)N2CCNC(=O)C2)c(OC(C)C)c1

Output:
0
0

Input: I am curious: what drug sensitivity score value has been reported for COC(=O)C[C@](O)(CCCC(C)(C)O)C(=O)O[C@@H]1C(OC)=C[C@]23CCCN2CCc2cc4c(cc2[C@H]13)OCO4 ?
Output: 27.4

* * *

# Tested on: MDA-MB-436
# test: normalised response (% of control), CellTox Green; higher = less cell death (100 = DMSO, 0 = benzethonium chloride kill control)
# assay context: incubation time: 72 h
Decision: normalised response >= 80% yields criterion met, all other cases yield criterion not met.

INSERT INTO results (molecule, discrete_label) VALUES
  ('CN1CCN(c2ccc3nc(-c4c(N)c5c(F)cccc5[nH]c4=O)[nH]c3c2)CC1 [Dovitinib] (1000 nM)', 'criterion met'),
  ('CS(=O)(=O)CCNCc1ccc(-c2ccc3ncnc(Nc4ccc(OCc5cccc(F)c5)c(Cl)c4)c3c2)o1 [Lapatinib] (10 nM)', 'criterion met');

Input: Would you say COc1cccc2c1C(=O)c1c(O)c3c(c(O)c1C2=O)C[C@@](O)(C(C)=O)C[C@@H]3O[C@H]1C[C@H](N)[C@H](O)[C@H](C)O1 [Daunorubicin] (10 nM) shows normalised response at minimum 80%?
Output: criterion met

Input: Would you say CC(=O)O[C@H]1C(=O)[C@@]2(C)[C@H]([C@H](OC(=O)c3ccccc3)[C@]3(O)C[C@H](OC(=O)[C@H](O)[C@@H](NC(=O)c4ccccc4)c4ccccc4)C(C)=C1C3(C)C)[C@]1(OC(C)=O)CO[C@@H]1C[C@@H]2O [Paclitaxel] (100 nM) shows normalised response at minimum 80%?
Output: criterion not met

Input: Would you say C[C@@]1(C(=O)Nc2ccc(F)nc2)CCCN1c1nc(Nc2cc(C3CC3)n[nH]2)c2cccn2n1 (10000 nM) shows normalised response at minimum 80%?
Output: criterion met
